Target: cDNA-expressed human hepatic CYP3A4 (Homo sapiens)
Construct: purchased BD Gentest 456202
Sequence (P08684 whole entry): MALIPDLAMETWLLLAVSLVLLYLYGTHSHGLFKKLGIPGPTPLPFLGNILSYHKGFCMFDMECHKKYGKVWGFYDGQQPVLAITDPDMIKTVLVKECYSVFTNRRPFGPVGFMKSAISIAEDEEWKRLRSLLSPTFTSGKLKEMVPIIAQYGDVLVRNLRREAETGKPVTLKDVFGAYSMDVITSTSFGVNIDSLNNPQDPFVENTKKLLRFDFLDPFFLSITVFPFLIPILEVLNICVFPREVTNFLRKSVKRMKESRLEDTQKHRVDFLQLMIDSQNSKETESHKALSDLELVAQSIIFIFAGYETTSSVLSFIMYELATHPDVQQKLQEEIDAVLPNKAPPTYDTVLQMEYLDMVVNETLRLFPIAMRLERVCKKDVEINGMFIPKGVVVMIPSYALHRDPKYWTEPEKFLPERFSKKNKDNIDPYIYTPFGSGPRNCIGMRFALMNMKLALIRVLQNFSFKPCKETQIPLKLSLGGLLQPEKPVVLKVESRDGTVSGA
Experiment: P450 CYP3A4 inhibitory activity screening (BFC substrate, fluorescence)
Type: biochemical
Conditions: P450 CYP3A4 inhibitory activity screening, fluorescent assay; read-out: CYP3A4 inhibition, IC50 (μM) fluorescent assay
Hi there, I'd appreciate the recorded IC50 for every entry that follows.
Use µM as the unit, but write only the number.

Query: Recorded IC50 for C=CCN1CC(=O)N2[C@@H](Cc3ccc(O)cc3)C(=O)N(Cc3cccc(-c4ccc(S(C)(=O)=O)cc4)n3)C[C@@H]2N1C(=O)NCc1ccccc1 [compound 6] , please?
Result: 6.78

Query: Now consider C=CCN1CC(=O)N2[C@@H](Cc3ccc(O)cc3)C(=O)N(Cc3cccc(-c4ccc[nH]c4=O)c3)C[C@@H]2N1C(=O)NCc1ccccc1 [compound 10] and answer again.
Result: 7.02

====

System: Wnt signaling
Experiment: TopFlash reporter gene bioassay in SW480 cells
Assay type: cell-based
Conditions: Homo sapiens, SW480, TopFlash reporter gene assay, inhibition of Wnt signaling; read-out: RGA, IC50 (μM) TopF
observation type: IC50 (µM)
Reply with just the number (in µM).

Query: GET /values?readout=IC50&item= `C=CCN1CC(=O)N2[C@@H](Cc3ccc(O)cc3)C(=O)N(Cc3csc4ccc(NCc5ccccc5)cc34)C[C@@H]2N1C(=O)NCc1ccccc1`
Result: 0.74

Query: And for C=CCN1CC(=O)N2[C@@H](Cc3ccc(OCC(O)CO)cc3)C(=O)N(Cc3cccc4scnc34)C[C@@H]2N1C(=O)NCc1ccccc1 (stereo partly drawn) ?
Result: 36.4

Query: Also check `C=CCN1CC(=O)N2[C@@H](Cc3ccc(O)cc3)C(=O)N(Cc3ccccc3N)C[C@@H]2N1C(=O)NCc1ccccc1`
Result: 0.95

Query: Same lookup for `C=CCN1CC(=O)N2[C@@H](Cc3ccc(O)cc3)C(=O)N(Cc3csc4ccc(NC(C)=O)cc34)C[C@@H]2N1C(=O)NCc1ccccc1` , please.
Result: 1

Query: Repeat for the following molecule: `C=CCN1CC(=O)N2[C@@H](Cc3ccc(O)cc3)C(=O)N(Cc3cccc(C(=O)N(C)C)c3)C[C@@H]2N1C(=O)NCc1ccccc1`
Result: 5.41

Query: Now consider `C=CCN1CC(=O)N2[C@@H](Cc3ccc(O)cc3)C(=O)N(Cc3cccc(C(=O)NCC4CCCCC4)c3)C[C@@H]2N1C(=O)NCc1ccccc1` and answer again.
Result: 1.24

Query: Field entry: `C=CCN1CC(=O)N2[C@@H](Cc3ccc(O)cc3)C(=O)N(Cc3cccc(C(=O)NC4CCCCC4)c3)C[C@@H]2N1C(=O)NCc1ccccc1`
Result: 0.61

Query: What about `C=CCN1CC(=O)N2[C@@H](Cc3ccc(O)cc3)C(=O)N(Cc3cccc(-c4ccc[nH]c4=O)c3)C[C@@H]2N1C(=O)NCc1ccccc1` ?
Result: 12.2

Query: What do you get for `C=CCN1CC(=O)N2[C@@H](Cc3ccc(O)cc3)C(=O)N(Cc3csc4cc(NC(=O)OC)ccc34)C[C@@H]2N1C(=O)NCc1ccccc1` ?
Result: 0.67

Query: Follow-up item: `C=CCN1CC(=O)N2[C@@H](Cc3ccc(O)cc3)C(=O)N(Cc3cccc4ccn(S(=O)(=O)c5ccc(C)cc5)c34)C[C@@H]2N1C(=O)NCc1ccccc1`
Result: 0.82

Query: Okay, and `C=CCN1CC(=O)N2[C@@H](Cc3ccc(O)cc3)C(=O)N(Cc3ccc(N)c([N+](=O)[O-])c3)C[C@@H]2N1C(=O)NCc1ccccc1` ?
Result: 7.13

Query: Please answer likewise for C=CCN1CC(=O)N2C(CN(Cc3cccc(-c4ccc(SC)cc4)n3)C(=O)[C@@H]2Cc2ccc(O)cc2)N1C(=O)NCc1ccccc1 (stereo partly drawn)
Result: 2.42

Data provenance is patent US8080657B2.
